- Target entity: LIMK2KD (Homo sapiens, UniProt P53671)
- Construct: The cDNA coding for LIMK2 residues 330 to 632 was PCR amplified; His6 (N, cleaved yes); made in house; host or cells: baculovirus; Sf9 for virus, TriEx insect cells for expression
- Sequence (P53671 330-632): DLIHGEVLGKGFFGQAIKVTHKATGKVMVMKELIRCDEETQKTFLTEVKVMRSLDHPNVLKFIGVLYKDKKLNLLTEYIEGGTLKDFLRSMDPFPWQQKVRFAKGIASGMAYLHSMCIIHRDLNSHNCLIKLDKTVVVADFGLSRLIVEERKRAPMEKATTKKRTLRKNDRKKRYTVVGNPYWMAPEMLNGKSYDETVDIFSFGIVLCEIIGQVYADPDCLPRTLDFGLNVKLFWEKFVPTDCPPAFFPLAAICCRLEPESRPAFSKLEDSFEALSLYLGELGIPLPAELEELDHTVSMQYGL
- Method description: Differential (dynamic) scanning fluorimetry (DSF) assay, LIMK2KD
- Format: binding
- Condition parameters: LIMK2KD, compound 10 µM, single shot; 10 µM
Counter-ions that a name gives are not always drawn.
Assay endpoint: TM Shift LIMK2 (K)

Observe how each entry below is paired with its result.
1) COc1ccc(Cl)c(Nc2nc3ccccc3nc2NS(=O)(=O)c2cccc(NC(=O)C(C)(C)N)c2)c1 [XL147] ... 0.6
2) CC(C)NC[C@@H](C(=O)N1CCN(c2ncnc3c2[C@H](C)C[C@H]3O)CC1)c1ccc(Cl)cc1 [GDC-0068] ... -0.4
3) CN(c1ncccc1CNc1nc(Nc2ccc3c(c2)CC(=O)N3)ncc1C(F)(F)F)S(C)(=O)=O [PF-562271] ... -0.7

1 = CC[C@H](Nc1ncnc2[nH]cnc12)c1nc2cccc(F)c2c(=O)n1-c1ccccc1 [Idelalisib]
2 = Cc1ccc(NC(=O)c2ccc(CN3CCN(C)CC3)cc2)cc1Nc1nccc(-c2cccnc2)n1 [Imatinib Mesylate (STI571), Imatinib Mesylate]
3 = CC(C)NC[C@@H](C(=O)N1CCN(c2ncnc3c2[C@H](C)C[C@H]3O)CC1)c1ccc(Cl)cc1 [Ipatasertib]
4 = Cc1c(NC(=O)OC[C@@H]2COCCN2)cn2ncnc(Nc3ccc4c(cnn4Cc4cccc(F)c4)c3)c12 [BMS-599626]
query: // sort entries: TM Shift LIMK2 (K), high to low // format: requested-order list of labels
result: 3, 2, 4, 1
(3: 2.3 K, 2: 0.8 K, 4: -0.4 K, 1: -0.8 K)

* * *

- Target entity: LIMK1KD (Homo sapiens, UniProt P53667)
- Construct: His6 (N, cleaved yes); made in house; host or cells: baculovirus; Sf9 for virus, TriEx insect cells for expression
- Sequence (P53667 330-637): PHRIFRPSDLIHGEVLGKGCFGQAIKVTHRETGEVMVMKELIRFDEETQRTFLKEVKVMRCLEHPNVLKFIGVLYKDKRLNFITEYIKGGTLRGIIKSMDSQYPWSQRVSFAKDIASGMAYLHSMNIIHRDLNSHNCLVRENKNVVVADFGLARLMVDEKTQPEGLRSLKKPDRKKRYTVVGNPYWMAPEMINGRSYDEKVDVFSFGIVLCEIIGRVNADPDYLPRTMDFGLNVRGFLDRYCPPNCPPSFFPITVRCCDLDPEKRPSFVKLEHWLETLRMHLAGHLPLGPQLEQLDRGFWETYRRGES
- Method description: Differential (dynamic) scanning fluorimetry (DSF) assay, LIMK1KD
- Assay type: binding
- Condition parameters: 2 µM LIMK1KD, compound 10 µM, single shot
Assay endpoint: TM Shift LIMK1 (K)

Observe how each entry below is paired with its result.
1. Cc1cc(Nc2ncnc3ccc(-c4ccc(CNCCS(C)(=O)=O)o4)cc23)ccc1Oc1ccn2ncnc2c1 [HER2-Inhibitor-1] ... 2.0
2. O=c1cc(N2CCOCC2)oc2c(-c3cccc4c3sc3ccccc34)cccc12 [NU7441 (KU-57788)] ... 0.5
3. Cc1ccc(S(=O)(=O)/C=C/C#N)cc1 [BAY 11-7082] ... -0.8

a = O=C(NC(NC(=S)Nc1ccc(F)c([N+](=O)[O-])c1)C(Cl)(Cl)Cl)C(c1ccccc1)c1ccccc1 (centres unmarked) [CGK 733]
b = N#Cc1c(Oc2ccc(F)c(NC(=O)Cc3cccc(C(F)(F)F)c3)c2)ccc2nc(NC(=O)C3CC3)sc12 [TAK-632]
query: Smaller TM Shift LIMK1 (K) value? Options are a and b Please reply using the label of the selected record.
result: a

* * *

- Target entity: LIMK1KD (Homo sapiens)
- Construct: His6 (N, cleaved yes); made in house; host or cells: baculovirus; Sf9 for virus, TriEx insect cells for expression
- Method description: Differential (dynamic) scanning fluorimetry (DSF) assay, LIMK1KD
- Format: binding
- Condition parameters: 2 µM LIMK1KD, compound 10 µM, single shot; read-out: TM Shift LIMK1 (K)
Assay endpoint: ΔTm at 10 µM (°C)

Observe how each entry below is paired with its result.
1) COc1cc2ncnc(Nc3ccc(F)c(Cl)c3)c2cc1NC(=O)/C=C/CN1CCCCC1 ... 0.9
2) Cc1csc(-c2nnc(Nc3ccc(Oc4ncccc4-c4ccnc(N)n4)cc3)c3ccccc23)c1 ... 0.5
3) COc1cc2nccc(Oc3ccc(NC(=O)NC4CC4)c(Cl)c3)c2cc1C(N)=O [Lenvatinib (E7080), Lenvatinib] ... 0.7

a = CNC(=O)c1nn(C)c2c1C(C)(C)Cc1cnc(Nc3ccc(N4CCN(C)CC4)cc3)nc1-2
b = O=C(O)[C@]1(Cc2cccc(Nc3nccs3)n2)CC[C@@H](Oc2cccc(Cl)c2F)CC1
c = O=C1NC(=O)[C@@H](c2cn3c4c(cccc24)CCC3)[C@@H]1c1c[nH]c2ccccc12 [Tivantinib]
d = Cc1cc(Nc2nc(N[C@@H](C)c3ccc(F)cc3)c(C#N)cc2F)[nH]n1
e = CCC(=O)Nc1cccc(Oc2nc(Nc3ccc(N4CCN(C)CC4)cc3OC)ncc2Cl)c1
query: // sort entries: ΔTm at 10 µM, high to low // format: requested-order list of labels
result: d, b, e, a, c
(d: 6 °C, b: 1.5 °C, e: 0.4 °C, a: 0.2 °C, c: 0 °C)

I = CCS(=O)(=O)N1CC(CC#N)(n2cc(-c3ncnc4[nH]ccc34)cn2)C1
II = CCS(=O)(=O)c1cccc(-c2cc(C(=O)NC3CCN(C)CC3)c(C)c3[nH]c4ncc(C)cc4c23)c1
III = Nc1nc(N)c(N=O)c(OCC2CCCCC2)n1
IV = Cn1cc(-c2[nH]c3cc(NC(=O)[C@H](N)C4CCCCC4)cc4c3c2C=NNC4=O)cn1
query: // sort entries: ΔTm at 10 µM, high to low // format: requested-order list of labels
result: IV, II, I, III

a = O=C(NC1CCNCC1)c1[nH]ncc1NC(=O)c1c(Cl)cccc1Cl
b = O=P(O)(O)C(O)(Cn1ccnc1)P(=O)(O)O
query: Smaller ΔTm at 10 µM value? Options are a and b Please reply using the label of the selected record.
result: b
(b: -0.7 °C, a: 1.2 °C)
